target-or-system: NK2 (Homo sapiens)
Sequence (P21452 whole entry): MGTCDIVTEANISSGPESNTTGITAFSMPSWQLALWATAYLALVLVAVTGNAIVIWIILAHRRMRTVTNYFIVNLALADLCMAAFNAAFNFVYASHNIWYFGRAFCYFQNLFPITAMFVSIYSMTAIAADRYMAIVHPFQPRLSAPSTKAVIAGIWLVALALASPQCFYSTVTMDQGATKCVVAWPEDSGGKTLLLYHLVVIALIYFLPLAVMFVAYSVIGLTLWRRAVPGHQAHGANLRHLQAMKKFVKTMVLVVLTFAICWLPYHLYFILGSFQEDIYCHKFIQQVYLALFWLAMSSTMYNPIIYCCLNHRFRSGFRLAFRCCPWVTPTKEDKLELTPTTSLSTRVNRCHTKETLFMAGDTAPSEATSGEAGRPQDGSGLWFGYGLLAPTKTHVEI
method-notes: Signal transduction (ST), intracellular Ca++ (FLIPR), NK2
Assay type: cell-based
study-conditions: read-out: pIC50 NK2 (converted)
IC50 strictly less than 2000 nM = T. Otherwise F.

- compound: "O=C(c1cc(C(F)(F)F)cc(C(F)(F)F)c1)N1CC[C@H](N2CCN(C3CCN(S(=O)(=O)c4ccc(O)cc4)C3)CC2)C[C@H]1Cc1ccccc1 (some centres unmarked) [Compound 303]"
  discrete-label: "T"
- compound: "O=C(C1CCCCC1)N1CCC(N2CCN(C3CCN(C(=O)c4cc(C(F)(F)F)cc(C(F)(F)F)c4)C(Cc4ccc(F)c(F)c4)C3)CC2)C1 (centres unmarked) [Compound 358]"
  discrete-label: "F"
- compound: "COc1cccc(S(=O)(=O)N2CCC(N3CCN([C@H]4CCN(C(=O)c5cc(C(F)(F)F)cc(C(F)(F)F)c5)[C@H](Cc5ccccc5)C4)CC3)C2)c1 (some centres unmarked) [Compound 347]"
  discrete-label: "T"
- compound: "COC(=O)c1sccc1S(=O)(=O)N1CCC(N2CCN([C@H]3CCN(C(=O)c4cc(C(F)(F)F)cc(C(F)(F)F)c4)[C@H](Cc4ccccc4)C3)CC2)C1 (some centres unmarked) [Compound 77]"
  discrete-label: "F"
- compound: "O=C(c1cccc(O)c1)N1CCC(N2CCN([C@H]3CCN(C(=O)c4cc(C(F)(F)F)cc(C(F)(F)F)c4)[C@H](Cc4ccccc4)C3)CC2)C1 (some centres unmarked) [Compound 332]"
  discrete-label: "T"
- compound: "CC(C)(C)OC(=O)N1CCC[C@H]1C(=O)N1CCC(N2CCN([C@H]3CCN(C(=O)c4cc(C(F)(F)F)cc(C(F)(F)F)c4)[C@H](Cc4ccccc4)C3)CC2)C1 (some centres unmarked) [Compound 115]"
  discrete-label: "F"
- compound: "CC(C)(C)OC(=O)N1CC[C@@H](N2CCN([C@H]3CCN(C(=O)c4cc(C(F)(F)F)cc(C(F)(F)F)c4)[C@H](Cc4ccc(Cl)c(Cl)c4)C3)CC2)C1 [Compound 261]"
  discrete-label: "T"
- compound: "O=C(c1cnccn1)N1CCC(N2CCN([C@H]3CCN(C(=O)c4cc(C(F)(F)F)cc(C(F)(F)F)c4)[C@H](Cc4ccccc4)C3)CC2)C1 (some centres unmarked) [Compound 30]"
  discrete-label: "F"

----------
target-or-system: NK1 (Homo sapiens, UniProt P25103)
Sequence (P25103 whole entry): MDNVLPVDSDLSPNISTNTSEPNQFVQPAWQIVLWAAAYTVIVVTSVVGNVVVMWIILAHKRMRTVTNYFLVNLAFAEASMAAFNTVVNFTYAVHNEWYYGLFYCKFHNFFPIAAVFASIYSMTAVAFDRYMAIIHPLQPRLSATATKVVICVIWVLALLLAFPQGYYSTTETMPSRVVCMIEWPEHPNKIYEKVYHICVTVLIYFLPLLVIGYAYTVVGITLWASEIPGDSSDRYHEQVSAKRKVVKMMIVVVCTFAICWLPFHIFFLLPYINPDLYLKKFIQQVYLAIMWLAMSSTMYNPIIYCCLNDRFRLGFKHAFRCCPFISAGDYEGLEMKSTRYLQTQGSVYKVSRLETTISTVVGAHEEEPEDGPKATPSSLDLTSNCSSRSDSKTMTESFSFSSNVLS
method-notes: Signal transduction (ST), intracellular Ca++ (FLIPR), NK1 antagonistic activity
Type: cell-based
study-conditions: read-out: pIC50 NK1 (converted)
Quick reference for IC50 among some molecules
endpoint: IC50 (nM)

- molecule: "O=C(CNc1ccccc1CO)N1CCC(N2CCN(C3CCN(C(=O)c4cc(C(F)(F)F)cc(C(F)(F)F)c4)C(Cc4ccccc4)C3)CC2)C1 (stereo not drawn)"
  test-value: 20
- molecule: "O=C(c1ccsc1)N1CCC(N2CCN(C3CCN(C(=O)c4cc(C(F)(F)F)cc(C(F)(F)F)c4)C(Cc4cc(F)cc(F)c4)C3)CC2)C1 (stereo not drawn)"
  test-value: 39.8
- molecule: "Cc1cc(C(=O)N2CCC(N3CCN([C@H]4CCN(C(=O)c5cc(C(F)(F)F)cc(C(F)(F)F)c5)[C@H](Cc5ccccc5)C4)CC3)C2)no1 (stereo partly drawn) [Compound 47]"
  test-value: 39.8
